organism: Mus musculus; test: Maximum percent analgesia using tail flick test in mice; assay type: functional
The threshold is inclusive: Analgesia of exactly 20% counts as Criterion met; values below receive Criterion not met.

Observe how each entry below is paired with its result.
{"columns": ["COMPOUND", "CATEGORY"],
 "data": [
  ["CN1CC[C@]23c4c5ccc(O)c4O[C@H]2[C@@H](O)C=C[C@H]3[C@H]1C5 [MORPHINE]", "Criterion met"],
  ["COc1ccc2c(c1O)C13CCN(C)C(C2)C12C=CC(=O)C3ON2c1ccc(F)cc1 (stereo unspecified)", "Criterion met"],
  ["C=CCN1CC[C@]23c4c5ccc(O)c4O[C@H]2C(=O)CC[C@@]3(O)[C@H]1C5 [NALOXONE]", "Criterion met"],
  ["COc1ccc2c3c1OC1C(=O)C=CC4(N(O)c5ccc(F)cc5)C(C2)N(CC2CC2)CCC314 (stereo unspecified)", "Criterion met"],
  ["COc1ccc2c3c1OC1C(=O)C=CC4(N(O)c5ccc(F)cc5)C(C2)N(C)CCC314 (stereo unspecified)", "Criterion met"]
]}

-- ask In plain terms: is recorded Analgesia at least 20% for COc1ccc2c3c1OC1C(=O)CCC4(Nc5ccccc5)C(C2)N(C)CCC314 (stereo unspecified) ?
-- reply Criterion not met

-- ask Quick check: does COc1ccc2c3c1OC1C(=O)CCC4(Nc5ccc(F)cc5)C(C2)N(CC2CC2)CCC314 (stereo unspecified) have Analgesia greater than or equal to 20%?
-- reply Criterion met

-- ask Is the recorded value of Analgesia equal to or greater than 20% for this compound? COc1ccc2c3c1OC1C(=O)CCC4(Nc5ccc(F)cc5)C(C2)N(C)CCC314 (stereo unspecified)
-- reply Criterion not met

-- ask Does Analgesia meet or surpass 20% for COc1ccc2c3c1OC1C(=O)C=CC4(N(O)c5ccccc5)C(C2)N(CC2CC2)CCC314 (stereo unspecified) ?
-- reply Criterion met
